The measurements presented in this section are drawn from PubChem BioAssay.

# assay protocol: nonspecific potentiation of DAMGO calcium response – cell-based, HEK293 mu-opioid receptor line, counter-screen for TRPC4 allosteric potentiator project, confirmation (AID 449724);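 also: HEK293 cells carrying mu-opioid receptor only with no TRPC4 channel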
# stated conditions: HEK293 mu-opioid receptor cells, Fluo-4 calcium flux, at 10 µM, compound added before EC20 DAMGO stimulus; active compounds read high
Activity calls are given as the source filed them.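 The calls were made as follows: active = calcium signal rise more than 3 SD above the low-dose agonist control mean, in both duplicate plates and the primary screen; inactive = the rest.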
observed property: activation

Answered examples (5):
compound: CCOC(=O)C(=NC1CCS(=O)(=O)C1)NNc1ccccc1Cl (stereo unspecified)
activation: inactive
--
compound: CCOC(=O)c1oc2ccccc2c1CN1CCCCC1
activation: inactive
--
compound: O=C(CC1CCCCC1)c1c(O)c2ccccc2oc1=O
activation: inactive
--
compound: CCCN(CCC)CCNC(=O)CCC(=O)Nc1ccc2nc(N3CCOCC3)cc(C)c2c1
activation: inactive
--
compound: CC1(C#CC[N+]2(C)CCCCC2)CCC2C(O1)c1ccccc1OC2(C)C (stereo unspecified)
activation: inactive

The measured activation associated with C/C(CC(=O)NCc1ccc(Cl)cc1)=N\NC(=O)COc1ccc(C)cc1Br reads inactive

The measured activation associated with Cn1c2ccccc2c(=O)c2c(=O)n(-c3ccccc3)c(-c3ccc(C(C)(C)C)cc3)nc21 reads inactive

The measured activation associated with Cc1ccc(/C=C/C(=O)c2ccc(O)cc2)cc1 reads inactive

The measured activation associated with NN=C1c2cc([N+](=O)[O-])ccc2-c2ccc([N+](=O)[O-])cc21 reads inactive

The measured activation associated with COc1ccc(CCN(C)C(=O)c2cc(S(=O)(=O)N3CCCCC3)ccc2Cl)cc1OC reads inactive

The measured activation associated with CCC(=O)Nc1cc(ON=C(C)C)cc([N+](=O)[O-])c1 reads inactive

----------
# assay protocol: serotonin-gated TRPC4 signal block – cell-based, second counter screen, HEK293 TRPC4/5HT1a, Fluo-4, counter-screen for TRPC4 inhibitor project, confirmation (AID 434978);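 as to outcome: serotonin given first at submaximal then at maximal dose after compound preincubation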
# stated conditions: Fluo-4 calcium flux, at 10 µM, serotonin added to trigger calcium flux
Calls of active or inactive are those of the source.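 How the source made its calls: active means primary screen active whose calcium signal fell more than 3 SD beyond the full-serotonin control mean in both duplicate plates; inactive means the rest.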
Please answer using one outcome listed in true for active, false for inactive

molecule: Cn1cc(CN2CCCCC2CO)c(-c2ccc(Oc3ccccc3)cc2)n1 (stereo not given)
group label: true

molecule: CN1CCC(=O)N([C@H](CSc2ccc(Br)cc2)Cc2ccccc2)CC1
group label: false

molecule: COc1cccc(N(C(=O)c2snc(C(N)=O)c2N)C(C(=O)NCC2CCCO2)c2ccc3ncccc3c2)c1 (stereo not given)
group label: false

molecule: Cc1cc(Cl)c2oc(C(=O)N(C)Cc3nccn3C)c(C)c2c1
group label: false

molecule: CC(C)(C)C(=O)/C=c1\s/c(=C\c2ccc(-c3ccc([N+](=O)[O-])cc3)o2)c(=O)n1CC(=O)NC(N)=O
group label: false

molecule: CCOC(=O)C1CCCN(C(=O)CCCn2nnnc2CN2CCOCC2)C1 (stereo not given)
group label: false

Given COc1cc(/C=C2\SC(=S)N(NS(=O)(=O)c3ccc(C)cc3)C2=O)cc(OC)c1OC , state the outcome it received in this test. true

Given CC(=O)Nc1ccc(S(=O)(=O)Nc2nc3ccc(C)cc3s2)cc1 , state the outcome it received in this test. false

Given CCOc1cccc(CN2CCCC(C(=O)c3cccc(C(F)(F)F)c3)C2)c1O (stereo not given) , state the outcome it received in this test. true

Given Brc1ccccc1CN1CCN(Cc2c[nH]c3ccccc23)CC1 , state the outcome it received in this test. true
